Molecular target: JAK2 (Homo sapiens (Human), UniProt O60674)
Sequence (O60674 849-1124): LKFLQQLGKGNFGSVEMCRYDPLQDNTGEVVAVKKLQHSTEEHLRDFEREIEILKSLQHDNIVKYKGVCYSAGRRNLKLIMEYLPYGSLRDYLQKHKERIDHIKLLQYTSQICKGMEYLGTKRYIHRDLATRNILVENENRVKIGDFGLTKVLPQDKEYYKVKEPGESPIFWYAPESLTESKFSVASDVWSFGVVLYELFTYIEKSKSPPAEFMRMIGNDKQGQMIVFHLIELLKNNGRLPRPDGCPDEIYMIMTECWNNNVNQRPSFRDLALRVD
Test: Jak Biochemical HTRF Assay (JAK2)
Settings: recombinant GST-tagged catalytic domain, [ATP] 8.5 μM; given as range class
pIC50: −log10 of the molar value.
Here the recorded pIC50 is given for each entry.
reported_metric: pIC50

>  <smiles>
CCOC(=O)c1c[nH]c2ncnc(-c3ccc(C)cc3)c12

>  <reported_metric>
pIC50

>  <result>
6.30 to 8.00

$$$$
>  <smiles>
CCOC(=O)c1c[nH]c2ncnc(-c3cccc(NC(=O)C=C(C)C)c3)c12

>  <reported_metric>
pIC50

>  <result>
< 6.30

$$$$
>  <smiles>
C=C(C)S(=O)(=O)Nc1cccc(-c2ncnc3[nH]cc(C(=O)OCC)c23)c1

>  <reported_metric>
pIC50

>  <result>
< 6.30

$$$$
>  <smiles>
CCOC(=O)c1c[nH]c2ncnc(-c3cccc(NC(=O)NCC#N)c3)c12

>  <reported_metric>
pIC50

>  <result>
< 6.30

$$$$
>  <smiles>
CCOC(=O)c1c[nH]c2ncnc(-c3cccc(NC(=O)C=C4CCCC4)c3)c12

>  <reported_metric>
pIC50

>  <result>
< 6.30

$$$$

Every entry's value here was drawn from patent US8993756B2.
